// provenance: ChEMBL document CHEMBL1201862

system: A549; test: NCI tumour cell line growth inhibition, 48 h
Calls of active or inactive are those of the source. No stated cut-off is given here; in the data, active = GI50 up to about 1.1 µM and inactive = higher.
Can you answer with just one of these options? active, inactive

Worked examples, 8 molecules total:
Molecule	Group Label
CCOC(=O)C(CCc1ncnc2c1ncn2Cc1ccccc1)(CCc1ncnc2c1ncn2Cc1ccccc1)C(=O)OCC	inactive
CC(C)(C)C(=O)OCC(COC(=O)C(C)(C)C)[N+](=O)[O-]	inactive
O=C(c1ccc(Cl)cc1)N1N=C(c2ccc(Cl)cc2)CC1(O)c1cc(F)c(Cl)cc1Cl (stereo not given)	inactive
O=C1Nc2ccccc2/C1=N/NC(=S)NCc1ccccn1	active
CCOC(=O)c1ccc(C(=O)/C(C#N)=C2\CCCN2C)[nH]1	inactive
CCOC(=O)/C(C(=S)NCc1ccccc1)=C(/N)N1CCCC1	inactive
Cc1ccc2c(c1)C(=O)c1ccc(C)nc1C2=O	inactive
O=C(Cn1c2ccc(Br)cc2c2nc3ccccc3nc21)NNC(=S)NC1CCCCC1	inactive

Which outcome did this test record for the molecule O=C(CCc1n[nH]c(=S)o1)Nc1cc(Cl)ccc1Cl ?
inactive

Which outcome did this test record for the molecule Cc1cc(NS(=O)(=O)c2ccc(Nc3c4ccccc4nc4c(C(=O)NC(CO)(CO)CO)cccc34)cc2)no1 ?
inactive

Which outcome did this test record for the molecule COc1cc(/N=N/N(C)C)c(C(C)c2c3cc(OC)c(OC)cc3cc[n+]2C)cc1OC (stereo not given) ?
inactive

Which outcome did this test record for the molecule COC1OC(Cc2nnc(C)o2)C(OCc2ccccc2)C(OCc2ccccc2)C1OCc1ccccc1 (stereo not given) ?
inactive

Which outcome did this test record for the molecule CC(=O)C1C(=O)C(=O)N(c2ccc(Br)cc2)C1=O (stereo not given) ?
inactive

Which outcome did this test record for the molecule CC(=O)OCC1OC(n2c(-c3ccc(N)cc3)cc(-c3ccco3)c(C#N)c2=O)C(OC(C)=O)C(OC(C)=O)C1OC(C)=O (stereo not given) ?
inactive

Which outcome did this test record for the molecule O=C1O/C(=C(/c2ccc(Cl)cc2)c2nc3ccccc3[nH]2)C(O)=C1c1ccc(Cl)cc1 ?
inactive

Which outcome did this test record for the molecule C=CC(C)(C)c1cc([C@@H]2COc3cc(O)ccc3C2=O)c(O)c(OC)c1OC ?
inactive

Which outcome did this test record for the molecule CC(=O)NN1C(=O)C(Cc2ccccc2)c2ccccc21 (stereo not given) ?
inactive

Which outcome did this test record for the molecule CC1(C)C(=O)/C=C\C(=O)C(C)(C)C2=CC=C(O2)C(C)(C)C(=O)C(Br)C(Br)C(=O)C(C)(C)C2=CC=C1O2 (stereo not given) ?
inactive

Which outcome did this test record for the molecule CN(C)/N=C/c1cn(C)c(=O)n(C)c1=O ?
inactive

Which outcome did this test record for the molecule O=C1CC(CC(O)C(O)C(O)CO)CC(=O)N1 (stereo not given) ?
inactive

====

system: HOP-62; experiment: NCI tumour cell line growth inhibition, 48 h
Calls of active or inactive are those of the source. Cut-off read from the data, not from the text of the source: active = GI50 up to about 1.1 µM and inactive = higher.
Can you answer with just one of these options? active, inactive

Compound	Group Label
CCOC(=O)c1cn2c(n1)sc1cccc(C)c12	inactive
COc1c(C(=O)O)cccc1-c1cccc(C(=O)NCCN(CCNC(=O)c2cccc(-c3cccc(C(=O)O)c3OC)c2OC)CCNC(=O)c2cccc(-c3cccc(C(=O)O)c3OC)c2OC)c1OC	inactive
CCOc1cc(NC(C)=O)ccc1C(=O)NN1C(=O)/C(=C/c2ccc(Cl)cc2)N=C1c1ccccc1	inactive
CCOC(=O)C(Cc1ccc(N(CCCl)CCCl)cc1)NC(=O)C(Cc1ccccc1)NC(C)=O (stereo not given)	active

Which outcome did this test record for the compound CC(=O)Nc1ccc(C2=N/C(=C\c3ccc(Cl)c(Cl)c3)C(=O)O2)cc1 ?
inactive

Which outcome did this test record for the compound CC(=O)Nc1ccc2c(c1)/C(=N/c1ccc(C(=O)O)cc1)c1ccccc1-2 ?
inactive

Which outcome did this test record for the compound CC(C)(C)c1ccc2c(c1)S(=O)(=O)Nc1ccccc1NS(=O)(=O)c1cc(C(C)(C)C)ccc1OCCOCCOCCO2 ?
inactive

Which outcome did this test record for the compound C=CCNC(=O)ON1C(=O)CCC1=O ?
inactive

Which outcome did this test record for the compound O=C1NC(=O)C2(CCCCCC2)N1 ?
inactive

Which outcome did this test record for the compound CC(C)C[C@H](NC(=O)[C@@H](N)Cc1cccc2ccccc12)B(O)O ?
active

Which outcome did this test record for the compound CC(=O)C1C(=O)C(=O)N(c2ccc(Br)cc2)C1=O (stereo not given) ?
inactive

Which outcome did this test record for the compound CC(=O)Nc1ccccc1-c1nc2ccccc2nc1-c1ccccc1 ?
inactive

Which outcome did this test record for the compound COc1cc(O)c2c(c1)C(=O)c1cc3c(c(O)c1C2=O)C(OC1OC(C)C(OC)C(O)C1OC)C(OC)C(C)(O)C3=O (stereo not given) ?
inactive

Which outcome did this test record for the compound O=C(/C=C/CC(O)(c1ccccc1)c1ccccc1)Nc1ccccc1Cl ?
inactive

Which outcome did this test record for the compound N#CC(C(=O)/C(=N\NC(N)=O)C(C#N)c1ccc(Cl)cc1)c1ccc(Cl)cc1 (stereo not given) ?
inactive

Which outcome did this test record for the compound Cc1nc2c(n1CCCl)C(=O)c1ccccc1C2=O ?
inactive

Which outcome did this test record for the compound Cc1ncc([N+](=O)[O-])n1CCNC(=O)CCn1ccnc1[N+](=O)[O-] ?
inactive

Which outcome did this test record for the compound C/C(CC(=O)NCCc1ccccc1)=N\NS(=O)(=O)c1ccc(C)cc1 ?
inactive

Which outcome did this test record for the compound O=C(Nc1ccc(F)cc1)c1cc2ccc(O)cc2o/c1=N\c1ccccc1F ?
inactive

Which outcome did this test record for the compound CC(=O)NN1C(=O)C(Cc2ccccc2)c2ccccc21 (stereo not given) ?
inactive
